Field: growth inhibition. Provide a value for each of the compounds that follow.
- assay_comment: NCI Yeast Anticancer Drug Screen. Data for the rad52 strain (AID 147);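 note: 0% = growth of vehicle-treated control cultures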
- stated_conditions: S. cerevisiae rad52 mutant growth inhibition; at 33.0 µM; stronger effect = higher value
Compounds without any hit were thinned out: in the full panel of roughly 79,000, 15% have a hit.
Give the value in % but do not write % after it.

*Q* Fill in: growth inhibition of COc1ccc(C(OCC2OC(n3cnc4c(=O)n(Cc5ccccc5[N+](=O)[O-])nnc43)C(O)C2O)(c2ccccc2)c2ccc(OC)cc2)cc1 (stereo unspecified) is ___
*A* 19

*Q* Let us now turn to COc1cccc(/C=C2\S/C(=N/Nc3nc(-c4ccc([N+](=O)[O-])cc4)cs3)NC2=O)c1O
*A* 72

*Q* Similarly, CN(CCOc1ccc(Cl)cc1)CCOc1ccc(Cl)cc1 ?
*A* 90

*Q* What about O=C1C=C(Br)C(=O)c2ccccc21 ?
*A* 99

*Q* Check Cc1cccc2c1C1c3c(C)cccc3C(CC(=O)O)CC1CC2 (stereo unspecified) too.
*A* 95

*Q* Try this compound too: C=COC(=O)N[C@H]1CCc2cc(OC)c(OC)c(OC)c2-c2ccc(SC)c(=O)cc21
*A* 14

*Q* // repeat for O=C1C2=C(c3ccccc31)C(c1ccccc1)N1C(=O)CSC1=N2 (stereo unspecified) and report
*A* 31

*Q* // query: O=C(/N=N/C(=O)Oc1ccccc1)Oc1ccccc1
*A* -38

*Q* Then O=C1CC(C(O)(C(F)(F)F)C(F)(F)Cl)CCC1C(O)(C(F)(F)F)C(F)(F)Cl (stereo unspecified) ?
*A* 93

*Q* Next compound up: S=C1C(=Nc2ccccc2)N(c2ccccc2)/C(=N\c2ccccn2)N1c1ccccc1
*A* 99

*Q* Quick one: CC1=CC(=C(c2ccc(N)c(C)c2)c2ccc(N)c(C)c2)C=CC1=N
*A* 64

*Q* Check Cc1cc(C)c(S(=O)(=O)c2ccc(Cl)cc2)c(C)c1 too.
*A* 7

*Q* Then this compound: Cc1nc2sc3c(c2c(=O)o1)CCCC3
*A* 6

*Q* Next up: O=C(O)c1ccc2cc(Cl)c3ccccc3c2c1
*A* 55

*Q* Try this compound next: [N-]=[N+]=NC1(c2ccccc2)C(=O)Nc2ccccc2C1=O (stereo unspecified)
*A* 20

*Q* And what about the compound CCCCCCCCCCCCOCCOCCOCC(N)=O ?
*A* 97

*Q* Request: CCC(=O)C1=C(O)c2cc(OC)ccc2CC1C(=O)OC (stereo unspecified)
*A* 16

*Q* Then what about the compound CCC1(O)C(=O)OCc2c1cc1n(c2=O)Cc2cc3c(N)cccc3nc2-1 (stereo unspecified) ?
*A* 57

*Q* Next: O=C(C#Cc1ccccc1)/C=C/c1ccccc1
*A* 78

*Q* Okay, and O=C(/C=C/c1ccsc1)c1cccs1 ?
*A* -12

*Q* Let us now turn to CC1=NN(C(=O)c2ccccc2O)C(=O)/C1=C/c1ccco1
*A* 92

*Q* Record: O=P(C(=S)Nc1c(Cl)cccc1Cl)(c1ccccc1)c1ccccc1
*A* 24

*Q* Repeat with COc1ccc2c(c1)CCCC(Br)C2=O (stereo unspecified)
*A* 64

*Q* Here is the next compound: O=C(c1cc(=O)c2ccc(O)cc2o1)c1ccc(Cl)cc1Cl
*A* 90

*Q* Check CCOC(=O)Nc1ccc(C)c(NC(=O)OCC)c1 too.
*A* 21

*Q* Follow-up item: COc1ccc2cc3c4cc5c(cc4cc[n+]3cc2c1OC)OCO5
*A* 94

*Q* Also need CC1=CC(C)(C)SC(SSSC2=NC(C)=CC(C)(C)S2)=N1 , thanks.
*A* 7

*Q* For O=C1c2ccccc2C(=O)c2sc(Nc3ccccc3Cl)nc21 then?
*A* 99

*Q* Try O=[N+]([O-])c1ccc(/C=C\c2ccc3c(c2)OCO3)c([N+](=O)[O-])c1 next.
*A* 54

*Q* Same question for CCc1c(Cl)c(C)c(Cl)c(O)c1Cl please.
*A* 97

*Q* Ok, now COc1cc(NCCCCNCC(C)(C)C)c2ncccc2c1
*A* 14

*Q* Follow-up entry: CC(CN(C)C)C(=O)/C=C/c1ccc(Cl)c(Cl)c1 (stereo unspecified)
*A* 73

*Q* Moving on to the next compound: Fc1ccc(Nc2ccc3ccccc3c2)cc1
*A* 17

*Q* Similarly, NC(=S)N/N=C1\c2ccccc2CCC1CCC1(O)CCc2ccccc2C1=O (stereo unspecified) ?
*A* 86

*Q* Same lookup for CC1C(c2ccccc2)SC(=N)N1C (stereo unspecified) , please.
*A* -1

*Q* Also O=C1NC(c2cccc(OCc3ccccc3)c2)Nc2ccccc21 (stereo unspecified) , if possible.
*A* 14

*Q* Input O=C(Nn1c(-c2ccccc2)nc2ccccc2c1=O)c1ccc(CS)cc1
*A* 53

*Q* Next compound: NC(CCCCCCCCCCCCC(N)C(=O)c1ccccc1)C(=O)c1ccccc1 (stereo unspecified)
*A* 92

*Q* Could you do the same for CCCCCCCCCCCCCCN , please?
*A* 23

*Q* Same read-out for Cc1cccc(C)c1NC(=O)C(C#N)C1=C(Cl)C(=O)c2ccccc2C1=O (stereo unspecified) ?
*A* 95

*Q* Follow-up entry: N#C/C(=C\NC(=S)Nc1ccc(S(N)(=O)=O)cc1)C(=O)c1ccc2ccccc2c1
*A* -3

*Q* Queued: O=C(Cc1ccccc1)NNc1nc(NNC(=O)c2ccncc2)nc(Nc2ccc([N+](=O)[O-])cc2)n1
*A* 59

*Q* Moving on to the next compound: CCC(/C=C/c1ccccc1)=N\Nc1ccc(Cl)c(Cl)c1
*A* 87

*Q* Another compound to look at: O=S(=O)(c1cccc(C(F)(F)F)c1)N1c2ccccc2-n2cccc2C1c1cccnc1 (stereo unspecified)
*A* 95

*Q* Repeat with COc1cc2c(cc1O)[C@H](C)C(c1ccccc1OC)O2 (stereo partly specified)
*A* -19

*Q* Input COc1ccc(C(=O)/C=C\c2ccc(Cl)c(Cl)c2)cc1
*A* 34
